system: D. immitis transglutaminase; test: Effect of ions, inhibitors and other reagents on activity of transglutaminase purified from adult D. immitis worms (microtiter plate assay); type: biochemical; settings: reagent 1 mM; with 10 mM CaCl2 and 10 mM dithiothreitol
REPORTED METRIC: Transglutaminase activity (% of control)

Below: 3 compounds and their reported Transglutaminase activity (% of control).
Query :: Please give the documented Transglutaminase activity (% of control) of CN(C)c1cccc2c(S(=O)(=O)NCCCCCN)cccc12
Result :: 9 % of control

Query :: Please give the documented Transglutaminase activity (% of control) of Nc1nc2c(ncn2[C@@H]2O[C@H](COP(=O)(O)OP(=O)(O)OP(=O)(O)O)[C@@H](O)[C@H]2O)c(=O)[nH]1
Result :: 95 % of control

Query :: Please give the documented Transglutaminase activity (% of control) of NCCCCN
Result :: 14 % of control

Continue with the next compound.
Query :: Please give the documented Transglutaminase activity (% of control) of NCCSSCCN
Result :: 52 % of control
